Test target: APE1 (Homo sapiens, UniProt P27695)
Construct: made in house
Sequence (P27695 whole entry): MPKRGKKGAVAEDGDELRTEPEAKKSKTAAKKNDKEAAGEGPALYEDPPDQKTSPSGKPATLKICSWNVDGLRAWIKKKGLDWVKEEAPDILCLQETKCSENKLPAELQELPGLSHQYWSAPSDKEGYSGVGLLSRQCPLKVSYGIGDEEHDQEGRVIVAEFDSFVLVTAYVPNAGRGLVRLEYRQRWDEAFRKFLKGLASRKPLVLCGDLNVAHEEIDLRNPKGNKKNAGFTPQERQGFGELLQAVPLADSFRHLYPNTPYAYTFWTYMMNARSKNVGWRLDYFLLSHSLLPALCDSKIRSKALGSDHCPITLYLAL
Method: Gel-based radiotracer (32P) APE1 incision assay;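 note: APE1 incision reactions ran 5 min at 37 °C, with cleaved product and intact substrate resolved electrophoretically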
Format: biochemical
Parameters: concentration or dose not given beside the values
Applied conditions: percent incision shown; entries 1-112
Property: Radiotracer Assay (%Activity) (%)
Express it in %; write the number only.

IN: Output Radiotracer Assay (%Activity) of Cc1ccc(S(=O)(=O)Nc2csc(C)c2C(=O)O)cc1
OUT: 49

IN: Output Radiotracer Assay (%Activity) of CCN(CC)c1ccc(C(=C2C=CC(=[N+](CC)Cc3cccc(S(=O)(=O)[O-])c3)C=C2)c2ccc(N(CC)Cc3cccc(S(=O)(=O)O)c3)cc2)cc1
OUT: 13.4

IN: Output Radiotracer Assay (%Activity) of O=c1c(O)c(Br)ccc2c(Br)c(O)c(O)c(O)c12
OUT: 37.9

IN: Output Radiotracer Assay (%Activity) of CC(C(=O)O)N1C(=O)/C(=C/C=C/c2ccco2)SC1=S (stereo not shown)
OUT: 9

IN: Output Radiotracer Assay (%Activity) of COc1ccc2c(c1)c(=O)oc1cc(OCC(=O)N3CCC(C)CC3)ccc12
OUT: 29

IN: Output Radiotracer Assay (%Activity) of CC(=O)NC1=NC(=O)/C(=C/c2cc(C)n(-c3cccc(C(=O)O)c3)c2C)S1
OUT: 30

IN: Output Radiotracer Assay (%Activity) of Cc1ccc(NC(=O)CN2C(=O)S/C(=C\c3cccn3-c3cccc(C(=O)O)c3)C2=O)c(C)c1
OUT: 0

IN: Output Radiotracer Assay (%Activity) of O=C(O)c1ccc(-n2cccc2/C=C2/NC(=O)N(c3cccc(Cl)c3)C2=O)cc1
OUT: 6

IN: Output Radiotracer Assay (%Activity) of CC(=O)c1ccc(NC(=O)c2ccc3nc(-c4ccco4)c(-c4ccco4)nc3c2)cc1
OUT: 11

IN: Output Radiotracer Assay (%Activity) of COc1ccc(C(CC(=O)N2CCCCC2)c2c(OC)cc(OC)c3c(-c4ccccc4)cc(=O)oc23)cc1 (stereo not shown)
OUT: 24

IN: Output Radiotracer Assay (%Activity) of COc1ccc(N2Cc3cccc(C(=O)O)c3C2=O)cc1
OUT: 37

IN: Output Radiotracer Assay (%Activity) of CC(=O)Nc1sc2c(c1-c1nc3ccccc3s1)CCN(C(C)C)C2
OUT: 2

IN: Output Radiotracer Assay (%Activity) of COc1c(-c2ccc(O)cc2)oc2cc(O)cc(O)c2c1=O
OUT: 43

IN: Output Radiotracer Assay (%Activity) of O=c1cc(-c2ccc(O)cc2)oc2c(C3OCC(O)C(O)C3O)c(O)c(C3OC(CO)C(O)C(O)C3O)c(O)c12 (stereo not shown)
OUT: 31

IN: Output Radiotracer Assay (%Activity) of Cc1ccccc1N=C1NC(=O)/C(=C/c2cccn2-c2cccc(C(=O)O)c2)S1
OUT: 7

IN: Output Radiotracer Assay (%Activity) of CCC(C)C(=O)OCC1(c2ccc(C)cc2OC(=O)C(C)C)CO1 (stereo not shown)
OUT: 36

IN: Output Radiotracer Assay (%Activity) of O=C(O)c1ccccc1-c1ccc(/C=c2\sc3nc4cc(Br)cnc4n3c2=O)o1
OUT: 11

IN: Output Radiotracer Assay (%Activity) of O=c1/c(=C/c2ccco2)sc2nc(-c3ccccc3Br)nn12
OUT: 9

IN: Output Radiotracer Assay (%Activity) of O=C(COC(=O)C1CC(=O)N(Cc2ccco2)C1)c1ccc(OC(=O)c2ccccc2)cc1 (stereo not shown)
OUT: 35

IN: Output Radiotracer Assay (%Activity) of O=C1CCCC(O)=C1N=Nc1cccc(C(=O)O)c1
OUT: 10

IN: Output Radiotracer Assay (%Activity) of COc1cc(N(C)C)cc(CN(C)CCc2ccc([N+](=O)[O-])cc2)c1O
OUT: 10.6

IN: Output Radiotracer Assay (%Activity) of Cc1cc(C)c2nc(-c3ccco3)cc(C(=O)O)c2c1
OUT: 23

IN: Output Radiotracer Assay (%Activity) of C[C@@]1(C(=O)O)NCCc2cc(O)c(O)cc21
OUT: 17.1

IN: Output Radiotracer Assay (%Activity) of CCOC(=O)C1CCN(/C=C2/C(=O)NC(=O)N(Cc3ccco3)C2=O)CC1
OUT: 3

IN: Output Radiotracer Assay (%Activity) of O=C(OCC1O[C@@H](OC(=O)c2cc(O)c(O)c(O)c2)[C@@H](OC(=O)c2cc(O)c(O)c(O)c2)[C@@H](OC(=O)c2cc(O)c(O)c(O)c2)[C@@H]1OC(=O)c1cc(O)c(O)c(O)c1)c1cc(O)c(O)c(O)c1 (stereo partly shown)
OUT: 8

IN: Output Radiotracer Assay (%Activity) of O=c1oc2c(cc1O)oc(=O)c1cc(O)c(O)c(O)c12
OUT: 46

IN: Output Radiotracer Assay (%Activity) of O=C(O)c1ccc(-n2cccc2/C=C2/NC(=O)N(c3ccccc3)C2=O)cc1
OUT: 37

IN: Output Radiotracer Assay (%Activity) of CCn1c(SCC(=O)O)nc2sc3c(c2c1=O)CCC3
OUT: 22.3
